Species on record: Rattus norvegicus
Experiment: Open TG-GATES - Regimen: Single
Assay type: toxicity, organism-based, Sprague-Dawley
Design: regimen Single, gender Male, age 6 weeks
Conditions: in vivo, po, 30 mg/kg, 6 h, tissue Blood, route gavage, dose level Middle
Below, each entry is listed alongside its reported MCV.
Please respond with the number in fL and leave the unit unwritten.

Recorded results for 3 molecules are shown here.
{"columns": ["molecule", "observable", "endpoint.value"],
 "data": [
  ["CN(C)CCCN1c2ccccc2CCc2ccc(Cl)cc21 [CLOMIPRAMINE]", "MCV", 62.8],
  ["CN(C)CCN(Cc1cccs1)c1ccccn1", "MCV", 64],
  ["CN(C)CCCN1c2ccccc2CCc2ccccc21 [IMIPRAMINE]", "MCV", 63.9]
]}

Please look at the following molecule next.
### Prompt I would be grateful if you could share the reported MCV for CC1=C(/C=C/C(C)=C/C=C/C(C)=C/CO)C(C)(C)CCC1 [RETINOL] .
### Response 61.2

----------
Organism: Rattus norvegicus
Assay: Open TG-GATES - Regimen: Daily Repeat
Format: toxicity, organism-based, Sprague-Dawley
Set-up: regimen Daily Repeat, gender Male, age 6 weeks
Conditions: in vivo, po, 300 mg/kg, […], tissue Blood, route gavage, dose level Middle, time 28 day
observable: Ht (%)
Numeric answer only, unit % assumed.

Answered examples (4):
{"columns": ["compound", "Ht [%]"],
 "data": [
  ["COC1=CC(=O)C[C@@H](C)[C@]12Oc1c(Cl)c(OC)cc(OC)c1C2=O", 44.7],
  ["COc1ccc2[nH]c([S+]([O-])Cc3ncc(C)c(OC)c3C)nc2c1 (stereo not given)", 42.2],
  ["CCOc1ccc(NC(=O)CC(C)O)cc1 (stereo not given)", 42.6],
  ["NC(N)=Nc1nc(CSCCC(N)=NS(N)(=O)=O)cs1", 43.3]
]}

# ---- query compound ----
### Prompt Entry CCOC(=O)CCC(=O)O[C@H]1[C@H](O[C@@H]2[C@@H](C)[C@H](O[C@H]3C[C@@](C)(OC)[C@@H](O)[C@H](C)O3)[C@@H](C)C(=O)O[C@H](CC)[C@@](C)(O)[C@H](O)[C@@H](C)C(=O)[C@H](C)C[C@@]2(C)O)O[C@H](C)C[C@@H]1N(C)C [ERYTHROMYCIN ETHYLSUCCINATE] has what Ht?
### Response 45.3

----------
Species: Rattus norvegicus
Assay: Open TG-GATES - Regimen: Daily Repeat
Assay type: toxicity, organism-based, Sprague-Dawley
Design: regimen Daily Repeat, gender Male, age 6 weeks
Details: in vivo, po, 0 mg/kg, […], tissue Plasma, route gavage, dose level Control, time 14 day
Label 1.0 when LDH is at or above 100 IU/L; otherwise label 0.0.

{"columns": ["compound", "answer.label"],
 "data": [
  ["O=C(CCCN1CCC(O)(c2ccc(Cl)cc2)CC1)c1ccc(F)cc1 [HALOPERIDOL]", 0.0]
]}

### Prompt Could you verify whether the entry COC1=CC(=O)C[C@@H](C)[C@]12Oc1c(Cl)c(OC)cc(OC)c1C2=O [GRISEOFULVIN] shows LDH of no less than 100 IU/L?
### Response 1.0

### Prompt One more compound: CC(C)OC(=O)C(C)(C)Oc1ccc(C(=O)c2ccc(Cl)cc2)cc1 [FENOFIBRATE]
### Response 1.0

### Prompt Check CCOC(=O)CCC(=O)O[C@H]1[C@H](O[C@@H]2[C@@H](C)[C@H](O[C@H]3C[C@@](C)(OC)[C@@H](O)[C@H](C)O3)[C@@H](C)C(=O)O[C@H](CC)[C@@](C)(O)[C@H](O)[C@@H](C)C(=O)[C@H](C)C[C@@]2(C)O)O[C@H](C)C[C@@H]1N(C)C [ERYTHROMYCIN ETHYLSUCCINATE] too.
### Response 1.0

### Prompt Input COc1ccc2[nH]c([S+]([O-])Cc3ncc(C)c(OC)c3C)nc2c1 (stereo not drawn) [OMEPRAZOLE]
### Response 1.0

### Prompt Proceed to CN(C)CCN(Cc1cccs1)c1ccccn1
### Response 1.0
